Examples of compounds with documented response vs control in vivo at 0.1 mg/kg follow.
- Tested on: P388 mouse leukemia cells
- methodNotes: Life-span-prolonging (anti-tumor) effect on mice subcutaneously inoculated with P388 mouse leukemia cells
- Type: in vivo, mouse (CDF1 female)
- testContext: Mus musculus, P388, iv; 0.1 mg/kg i.v. on days 1, 5 and 9; survival vs vehicle; read-out: T/C (%)

compound | response vs control in vivo at 0.1 mg/kg [%]
CCCCCCCCCCCCCCCCCCCCCC[C@@H](O)C(=O)N[C@@H](CO[C@H]1O[C@H](CO)[C@H](O)[C@H](O[C@@H]2O[C@@H]([C@H](O)CO)[C@H](O)[C@H]2O)[C@H]1O)[C@H](O)[C@H](O)CCCCCCCCCCCC [Compound 12] | 108
CCCCCCCCCCCCCCCCCCCCCC[C@@H](O)C(=O)N[C@@H](CO[C@H]1O[C@H](CO)[C@H](O)[C@H](O[C@H]2O[C@H](CO)[C@H](O)[C@H](O)[C@H]2NC(C)=O)[C@H]1O[C@H]1O[C@H](CO)[C@@H](O)[C@H](O)[C@H]1O)[C@H](O)[C@H](O)CCCCCCCCCCCC [Compound 1] | 120
CCCCCCCCCCCCCCCCCCCCCCCCCC(=O)N[C@@H](CO[C@H]1O[C@H](CO[C@H]2O[C@H](CO)[C@H](O)[C@H](O)[C@H]2O)[C@H](O)[C@H](O)[C@H]1O)[C@H](O)[C@H](O)CCCCCCCCCCCCCC [Compound 33] | 117
CCCCCCCCCCCCCCCCCCCCCC[C@@H](O)C(=O)N[C@@H](CO[C@H]1O[C@H](CO)[C@H](O)[C@H](O[C@@H]2O[C@@H]([C@H](O)CO)[C@H](O)[C@H]2O)[C@H]1O)[C@H](O)[C@H](O)CCCCCCCCCCCCCC [Compound 16] | 116
CCCCCCCCCCCCCCCCCCCC[C@@H](O)C(=O)N[C@@H](CO[C@H]1O[C@H](CO)[C@H](O)[C@H](O[C@@H]2O[C@@H]([C@H](O)CO)[C@H](O)[C@H]2O)[C@H]1O)[C@H](O)[C@H](O)CCCCCCCCCCCC [Compound 10] | 108
CCCCCCCCCCCCCCCCCCCCCC[C@@H](O)C(=O)N[C@@H](CO[C@H]1O[C@H](CO)[C@H](O)[C@H](O[C@@H]2O[C@@H]([C@H](O)CO)[C@H](O)[C@H]2O)[C@H]1O)[C@H](O)[C@H](O)CCCCCCCCCCCCC [Compound 14] | 108
CCCCCCCCCCCCCCCCCCCCCC[C@@H](O)C(=O)N[C@@H](CO[C@H]1O[C@H](CO)[C@H](O)[C@H](O[C@@H]2O[C@@H]([C@H](O)CO)[C@H](O)[C@H]2O)[C@H]1O)[C@H](O)[C@H](O)CCCCCCCCCCC(C)C [Compound 13] | 114
CCCCCCCCCCCCCCCCCCCCCC[C@@H](O)C(=O)N[C@@H](CO[C@H]1O[C@H](CO)[C@H](O)[C@H](O[C@H]2O[C@H](CO)[C@H](O)[C@H](O)[C@H]2NC(C)=O)[C@H]1O[C@H]1O[C@H](CO)[C@@H](O)[C@H](O)[C@H]1O)[C@H](O)[C@H](O)CCCCCCCCCCCCC [Compound 2] | 123
CCCCCCCCCCCCCCCCCCCCCCCCCC(=O)N[C@@H](CO[C@H]1O[C@H](CO)[C@@H](O[C@H]2O[C@H](CO)[C@@H](O)[C@H](O)[C@H]2O)[C@H](O)[C@H]1O)[C@H](O)[C@H](O)CCCCCCCCCCCCCC [Compound 35] | 116
CCCCCCCCCCCCCCCCCCCCCCCCCC(=O)N[C@@H](CO[C@H]1O[C@H](CO)[C@H](O)[C@H](O)[C@H]1O)[C@H](O)[C@H](O)CCCCCCCCCCCCCC [Compound b, reference compound] | 122

###

Examples of compounds with documented activity at 0.1 µg/mL follow.
- Tested on: mouse splenic lymphocyte
- methodNotes: In vitro mouse splenic lymphocyte-proliferation-stimulating effect (3H-TdR uptake)
- Type: cell-based, mouse (BDF1 female)
- testContext: Mus musculus, Splenic lymphocyte, 48 h; 10^-1 μg/ml, 2 days; read-out: Uptake of 3H-TdR (% of control), splenic lymphocytes

compound | activity at 0.1 µg/mL
CCCCCCCCCCCCCCCCCCCC[C@@H](O)C(=O)N[C@@H](CO[C@H]1O[C@H](CO)[C@H](O)[C@H](O[C@@H]2O[C@@H]([C@H](O)CO)[C@H](O)[C@H]2O)[C@H]1O)[C@H](O)[C@H](O)CCCCCCCCCCCC [Compound 10] | 375%
CCCCCCCCCCCCCCCCCCCCCCCCCC(=O)N[C@@H](CO[C@H]1O[C@H](CO)[C@@H](O[C@H]2O[C@H](CO)[C@@H](O)[C@H](O)[C@H]2O)[C@H](O)[C@H]1O)[C@H](O)[C@H](O)CCCCCCCCCCCCCC [Compound 35] | 874%
CCCCCCCCCCCCCCCCCCCCCC[C@@H](O)C(=O)N[C@@H](CO[C@H]1O[C@H](CO)[C@H](O)[C@H](O[C@@H]2O[C@@H]([C@H](O)CO)[C@H](O)[C@H]2O)[C@H]1O)[C@H](O)[C@H](O)CCCCCCCCCCCC [Compound 12] | 982%
CCCCCCCCCCCCCCCCCCCCCC[C@@H](O)C(=O)N[C@@H](CO[C@H]1O[C@H](CO)[C@H](O)[C@H](O[C@H]2O[C@H](CO)[C@H](O)[C@H](O)[C@H]2NC(C)=O)[C@H]1O[C@H]1O[C@H](CO)[C@@H](O)[C@H](O)[C@H]1O)[C@H](O)[C@H](O)CCCCCCCCCCCC [Compound 1] | 738%
CCCCCCCCCCCCCCCCCCCCCC[C@@H](O)C(=O)N[C@@H](CO[C@H]1O[C@H](CO)[C@H](O)[C@H](O[C@H]2O[C@H](CO)[C@H](O)[C@H](O)[C@H]2NC(C)=O)[C@H]1O[C@H]1O[C@H](CO)[C@@H](O)[C@H](O)[C@H]1O)[C@H](O)[C@H](O)CCCCCCCCCCCCC [Compound 2] | 735%

###

- Test system: mouse splenic lymphocyte
- methodNotes: In vitro mouse splenic lymphocyte-proliferation-stimulating effect (3H-TdR uptake)
- Assay type: cell-based, mouse (BDF1 female)
- testContext: 10^-3 μg/ml, 2 days; 2880 min
Examples of compounds with documented Uptake of 3H-TdR (% of control), splenic lymphocytes follow.
quantityKind: Uptake of 3H-TdR (% of control), splenic lymphocytes

compound | assayTarget | result
CCCCCCCCCCCCCCCCCCCCCC[C@@H](O)C(=O)N[C@@H](CO[C@H]1O[C@H](CO)[C@H](O)[C@H](O[C@H]2O[C@H](CO)[C@H](O)[C@H](O)[C@H]2NC(C)=O)[C@H]1O[C@H]1O[C@H](CO)[C@@H](O)[C@H](O)[C@H]1O)[C@H](O)[C@H](O)CCCCCCCCCCCC(C)C [Compound 5] | mouse splenic lymphocyte | 592 % of control
CCCCCCCCCCCCCCCCCCCCCC[C@@H](O)C(=O)N[C@@H](CO[C@H]1O[C@H](CO)[C@H](O)[C@H](O[C@H]2O[C@H](CO)[C@H](O)[C@H](O)[C@H]2NC(C)=O)[C@H]1O[C@H]1O[C@H](CO)[C@@H](O)[C@H](O)[C@H]1O)[C@H](O)[C@H](O)CCCCCCCCCCCC(C)C [Compound 7] | mouse splenic lymphocyte | 593 % of control
CCCCCCCCCCCCCCCCCCCCCC[C@@H](O)C(=O)N[C@@H](CO[C@H]1O[C@H](CO)[C@H](O)[C@H](O[C@H]2O[C@H](CO)[C@H](O)[C@H](O)[C@H]2NC(C)=O)[C@H]1O[C@H]1O[C@H](CO)[C@@H](O)[C@H](O)[C@H]1O)[C@H](O)[C@H](O)CCCCCCCCCCCCCC [Compound 4] | mouse splenic lymphocyte | 325 % of control
CCCCCCCCCCCCCCCCCCCCCC[C@@H](O)C(=O)N[C@@H](CO[C@H]1O[C@H](CO)[C@H](O)[C@H](O[C@H]2O[C@H](CO)[C@H](O)[C@H](O)[C@H]2NC(C)=O)[C@H]1O[C@H]1O[C@H](CO)[C@@H](O)[C@H](O)[C@H]1O)[C@H](O)[C@H](O)CCCCCCCCCCCCCC [Compound 6] | mouse splenic lymphocyte | 543 % of control

###

- System: mouse splenic lymphocyte
- methodNotes: In vitro mouse splenic lymphocyte-proliferation-stimulating effect (3H-TdR uptake)
- Assay type: cell-based, mouse (BDF1 female)
- testContext: Mus musculus, Splenic lymphocyte, 48 h; 10^-2 μg/ml, 2 days; read-out: Uptake of 3H-TdR (% of control), splenic lymphocytes
Hi! Just check whether activity at 0.01 µg/mL is below 800%. Below gives Criterion met, equal or above gives Criterion not met.

structureAsSmiles | classLabel
CCCCCCCCCCCCCCCCCCCCCC[C@@H](O)C(=O)N[C@@H](CO[C@H]1O[C@H](CO)[C@H](O)[C@H](O[C@@H]2O[C@@H]([C@H](O)CO)[C@H](O)[C@H]2O)[C@H]1O)[C@H](O)[C@H](O)CCCCCCCCCCCC | Criterion met
CCCCCCCCCCCCCCCCCCCCC[C@@H](O)C(=O)N[C@@H](CO[C@H]1O[C@H](CO)[C@H](O)[C@H](O[C@@H]2O[C@@H]([C@H](O)CO)[C@H](O)[C@H]2O)[C@H]1O)[C@H](O)[C@H](O)CCCCCCCCCCCC | Criterion not met
CCCCCCCCCCCCCCCCCCCCCC[C@@H](O)C(=O)N[C@@H](CO[C@H]1O[C@H](CO)[C@H](O)[C@H](O[C@H]2O[C@H](CO)[C@H](O)[C@H](O)[C@H]2NC(C)=O)[C@H]1O[C@H]1O[C@H](CO)[C@@H](O)[C@H](O)[C@H]1O)[C@H](O)[C@H](O)CCCCCCCCCCCC | Criterion met
CCCCCCCCCCCCCCCCCCCCCC[C@@H](O)C(=O)N[C@@H](CO[C@H]1O[C@H](CO)[C@H](O)[C@H](O[C@H]2O[C@H](CO)[C@H](O)[C@H](O)[C@H]2NC(C)=O)[C@H]1O[C@H]1O[C@H](CO)[C@@H](O)[C@H](O)[C@H]1O)[C@H](O)[C@H](O)CCCCCCCCCCCCC | Criterion met
CCCCCCCCCCCCCCCCCCCC[C@@H](O)C(=O)N[C@@H](CO[C@H]1O[C@H](CO)[C@H](O)[C@H](O[C@@H]2O[C@@H]([C@H](O)CO)[C@H](O)[C@H]2O)[C@H]1O)[C@H](O)[C@H](O)CCCCCCCCCCCC | Criterion met
